Kindly supply the reported IC50 values for the records listed here.
Tested on: bloodstream form T.b. brucei recombinant parasites expressing wild type (-tet) or elevated (+tet) levels of TbNTR
protocolDetails: microbe, parasite or virus in culture
Type: cell-based
condition: Trypanosoma brucei, read-out: IC50 value T.b. brucei TbNTR (+tet)
Hi, when you answer, please include the unit after the number. Thanks!

Observe how each entry below is paired with its result.
O=C(CCn1cnc([N+](=O)[O-])n1)Nc1cccc(OCc2ccccc2)c1 [Compound 11]
0.36 µM
N#Cc1ccc(-c2ccc(NC(=O)CCn3cnc([N+](=O)[O-])n3)cc2)cc1 [Compound 9]
0.12 µM

Kindly give each listed record's IC50.
1. O=C(CCn1cnc([N+](=O)[O-])n1)Nc1ccc(Oc2ccc(F)cc2)cc1 [Compound 7]
2. CC1CS(=O)(=O)CCN1/N=C/c1ccc([N+](=O)[O-])o1 (stereo not shown) [nfx, Nifurtimox, reference compound]
3. O=C(Cn1cnc([N+](=O)[O-])n1)Nc1cc(-c2ccc(Cl)cc2)no1 [Compound 15]
4. O=C(CCn1cnc([N+](=O)[O-])n1)Nc1ccc(Oc2ccc(Cl)cc2)cc1 [Compound 6]
5. O=C(CCn1cnc([N+](=O)[O-])n1)Nc1cc(-c2ccc(Cl)cc2)no1 [Compound 14]
6. O=C(CCn1cnc([N+](=O)[O-])n1)Nc1cccc(-c2ccccc2)c1 [Compound 10]
7. O=C(CCn1cnc([N+](=O)[O-])n1)Nc1cc(-c2ccc(F)cc2)on1 [Compound 12]

## Output
0.33 µM
0.869 µM
1.23 µM
0.34 µM
0.29 µM
0.23 µM
0.4 µM

## Input So what's the measured IC50 for this one? O=C(CCn1cnc([N+](=O)[O-])n1)Nc1ccc(Oc2ccccc2)cc1 [Compound 8]
## Output 0.41 µM

---

Test system: T. cruzi, strain Tulahuen C4 amastigotes
protocolDetails: In vitro activity against T. cruzi
Type: cell-based
condition: Trypanosoma cruzi; T. cruzi Tulahuen C4 amastigotes; means of 2 to 3 measurements, SD < 5%; read-out: T. c. IC50
resultType: IC50 (nM)
Give bare numbers, in nM.

O=C(CCn1cnc([N+](=O)[O-])n1)Nc1cc(-c2ccc(Cl)cc2)no1 [Compound 14]
251

// for each molecule in input: emit IC50
1. O=C(CCn1cnc([N+](=O)[O-])n1)Nc1cccc(-c2ccccc2)c1 [Compound 10]
2. O=C(CCn1cnc([N+](=O)[O-])n1)Nc1ccc(Oc2ccc(Cl)cc2)cc1 [Compound 6]
3. O=C(Cn1cnc([N+](=O)[O-])n1)Nc1cc(-c2ccc(F)cc2)on1 [Compound 13]

## Output
1. 80
2. 5
3. 340

---

For each record, write down the corresponding melting point.

O=C(CCn1cnc([N+](=O)[O-])n1)Nc1cccc(OCc2ccccc2)c1
119 to 120 °C
O=C(CCn1cnc([N+](=O)[O-])n1)Nc1cc(-c2ccc(F)cc2)on1
215 °C (dec.)
O=C(Cn1cnc([N+](=O)[O-])n1)Nc1cc(-c2ccc(F)cc2)on1
> 220 °C
O=C(CCn1cnc([N+](=O)[O-])n1)Nc1cccc(-c2ccccc2)c1
174 to 176 °C
CN(C(=O)Cn1cnc([N+](=O)[O-])n1)c1ccc(C(F)(F)F)cc1
133 to 134 °C

Okay, here is my list. What is melting point for each of these?
1. O=C(CCn1cnc([N+](=O)[O-])n1)Nc1ccc(Oc2ccccc2)cc1
2. CN(C(=O)Cn1ccnc1[N+](=O)[O-])c1ccc(C(F)(F)F)cc1

## Output
1. 108 to 110 °C
2. 45 to 47 °C

---

Test system: T. cruzi, strain Tulahuen C4 amastigotes
protocolDetails: In vitro activity against T. cruzi
Format: cell-based
condition: IC50 in L6 cells/IC50 in T. cruzi
resultType: SI (T. c.)
One number for each entry.

O=C(CCn1cnc([N+](=O)[O-])n1)Nc1ccc(Oc2ccccc2)cc1 [Compound 8]
398
N#Cc1ccc(-c2ccc(NC(=O)CCn3cnc([N+](=O)[O-])n3)cc2)cc1 [Compound 9]
2453
O=C(CCn1cnc([N+](=O)[O-])n1)Nc1cccc(OCc2ccccc2)c1 [Compound 11]
868
O=C(Cn1cnc([N+](=O)[O-])n1)Nc1cc(-c2ccc(F)cc2)on1 [Compound 13]
590
O=C(CCn1cnc([N+](=O)[O-])n1)Nc1ccc(Oc2ccc(Cl)cc2)cc1 [Compound 6]
3343

Continue with the compound presented below.
## Input Field request: SI (T. c.) | item: O=C(CCn1cnc([N+](=O)[O-])n1)Nc1cccc(-c2ccccc2)c1 [Compound 10]
## Output 452

---

protocolDetails: Cytotoxicity in the host L6 cells
Type: cell-based, rat
condition: rat, L6 cells (rat skeletal myoblasts); cytotoxicity in host L6 cells; read-out: Cyt. L6 IC50
Experimental: Compounds in Table 1 were screened for anti-parasitic activity against three trypanosomatids: T. cruzi, T. b. rhodesiense and Leishmania donovani and compared with previously made analogs shown in orange and designated with a. […] In vitro activity against T. cruzi, T. b. rhodesiense, L. donovani and cytotoxicity assessment using L6 cells (rat skeletal myoblasts) was determined using a 96-well plate format as previously described. […]
Exercise: for every item that follows, state its recorded IC50.
Give bare numbers, in µM.

These recorded examples may help you get a feel for the data.
CN(C(=O)Cn1cnc([N+](=O)[O-])n1)c1ccc(C(F)(F)F)cc1
254
O=C(CCn1cnc([N+](=O)[O-])n1)Nc1ccc(Oc2ccc(F)cc2)cc1
23.4
O=C(CCn1cnc([N+](=O)[O-])n1)Nc1ccc(Oc2ccccc2)cc1
31.6

Attention now shifts to the item below.
## Input Requested read-out: IC50. Entry: N#Cc1ccc(-c2ccc(NC(=O)CCn3cnc([N+](=O)[O-])n3)cc2)cc1
## Output 230

---

Test system: T.b. rhodesiense, strain STIB 900 trypomastigotes
protocolDetails: In vitro activity against T. b. rhodesiense
Assay type: cell-based
condition: T. b. rhodesiense
resultType: anti-HAT activity class (TDR criteria)

CN(C(=O)Cn1ccnc1[N+](=O)[O-])c1ccc(C(F)(F)F)cc1 [Compound 3]
inactive
O=C(Cn1cnc([N+](=O)[O-])n1)Nc1cc(-c2ccc(F)cc2)on1 [Compound 13]
inactive
O=C(Cn1cnc([N+](=O)[O-])n1)Nc1cc(-c2ccc(Cl)cc2)no1 [Compound 15]
inactive
CN(C(=O)Cn1cnc([N+](=O)[O-])n1)c1ccc(C(F)(F)F)cc1 [Compound 2]
inactive
